This listing pairs compounds with measured cell viability.
# Test system: Caco-2
# assay.method.text: cell viability relative to DMSO; higher = less toxic
# measurement.parameters: 72 h; 100 nM

>  <compound>
NCCCC[C@H](NC(=O)[C@@H](Cc1cc(Br)c(O)c(Br)c1)NC(=O)N1CCC(N2Cc3ccccc3NC2=O)CC1)C(=O)N1CCN(c2ccncc2)CC1

>  <target.or.test.system>
Caco-2

>  <cell viability>
101%

$$$$
>  <compound>
Cc1c(-c2ccnn2C)cc(C(=O)NCc2ccc(S(C)(=O)=O)cn2)c(=O)n1-c1cccc(C(F)(F)F)c1

>  <target.or.test.system>
Caco-2

>  <cell viability>
106%

$$$$
>  <compound>
O=C(O)CCc1c(C(=O)O)[nH]c2cc(Cl)cc(Cl)c12

>  <target.or.test.system>
Caco-2

>  <cell viability>
90.9%

$$$$
>  <compound>
CN(C)CC[C@@H](c1ccc(Cl)cc1)c1ccccn1

>  <target.or.test.system>
Caco-2

>  <cell viability>
102%

$$$$
>  <compound>
CNC1CC(N)C(O)C(OC2OC(CO)C(O)C3OC4(OC(C(N)CO)C(O)C(O)C4O)OC23)C1O (stereo unspecified)

>  <target.or.test.system>
Caco-2

>  <cell viability>
107%

$$$$
>  <compound>
CC/C=C(\C(=O)N[C@@H]1C(=O)N2C(C(=O)OCOC(=O)C(C)(C)C)=C(COC(N)=O)CS[C@H]12)c1csc(N)n1

>  <target.or.test.system>
Caco-2

>  <cell viability>
117%

$$$$
>  <compound>
CNc1nc(C)nc(N[C@H]2CCC[C@@H](C(=O)NCc3ccc(C#N)cc3C(F)(F)F)C2)n1

>  <target.or.test.system>
Caco-2

>  <cell viability>
91.8%

$$$$
>  <compound>
CCCCCCCCCCCCCC[C@@H](O)[C@@H](O)[C@@H](N)CO

>  <target.or.test.system>
Caco-2

>  <cell viability>
87.3%

$$$$
>  <compound>
C[C@@H](N)[C@@H](O)c1ccccc1

>  <target.or.test.system>
Caco-2

>  <cell viability>
97.4%

$$$$
>  <compound>
Cc1cc(OCC(=O)O)cc(C)c1Cc1ccc(O)c(C(C)C)c1

>  <target.or.test.system>
Caco-2

>  <cell viability>
92.1%

$$$$
>  <compound>
O=C(N/N=C/c1ccc([N+](=O)[O-])o1)c1cc([N+](=O)[O-])cc([N+](=O)[O-])c1O

>  <target.or.test.system>
Caco-2

>  <cell viability>
97.1%

$$$$
